- TESTED SYSTEM: Aurora-1 (Aurora B) (Homo sapiens)
- Sequence (Q96GD4 whole entry): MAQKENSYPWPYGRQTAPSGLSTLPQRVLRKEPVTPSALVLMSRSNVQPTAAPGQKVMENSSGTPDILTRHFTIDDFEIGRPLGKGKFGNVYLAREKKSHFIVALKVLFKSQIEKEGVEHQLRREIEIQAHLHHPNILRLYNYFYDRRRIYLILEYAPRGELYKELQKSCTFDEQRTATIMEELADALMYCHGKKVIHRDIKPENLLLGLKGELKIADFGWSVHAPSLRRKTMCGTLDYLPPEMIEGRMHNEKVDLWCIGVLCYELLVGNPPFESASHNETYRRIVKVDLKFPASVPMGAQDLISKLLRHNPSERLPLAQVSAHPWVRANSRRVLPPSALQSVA
- PROTOCOL: Aurora-1 (Aurora B) inhibition assay (radiometric)
- Format: biochemical
- EXPERIMENTAL SETUP: read-out: Aurora B kinase Ki value
READOUT NAME: Ki

[[record]]
compound = "Cc1cc(Nc2cc(N3CCC3)nc(Sc3ccc(N(C)C(=O)c4c(F)cccc4F)cc3)n2)n[nH]1"
readout_name = "Ki"
test_result = "50 to 2000 nM"

[[record]]
compound = "COC1(C2CC2)CN(c2cc(Nc3cc(C)[nH]n3)nc(Sc3ccc(NC(=O)C4CC4)cc3)n2)C1"
readout_name = "Ki"
test_result = "≤ 10 nM"

[[record]]
compound = "COCc1cc(Nc2cc(N3CCC3)nc(Sc3ccc(NC(=O)c4ccccc4Cl)cc3)n2)n[nH]1"
readout_name = "Ki"
test_result = "50 to 2000 nM"


Query: Ki lookup needed for `Cc1cc(Nc2cc(N3CC(N4CCOCC4)C3)nc(Sc3ccc(NC(=O)CC(F)(F)F)cc3)n2)[nH]n1` , thanks.
Result: ≤ 10 nM

Query: What would you report for `Cc1cc(Nc2cc(N3CC(O)(C4CC4)C3)nc(Sc3cc(F)c4nc(C)ccc4c3)n2)[nH]n1` ?
Result: ≤ 10 nM

Query: What would you report for `Cc1cc(Nc2cc(N3CCC3)nc(Sc3ccc(NC(=O)c4ccc(CN(C)C)cc4)cc3)n2)[nH]n1` ?
Result: 50 to 2000 nM

Query: What would you report for `Cc1cc(Nc2cc(N3CCC3)nc(Sc3ccc(NC(=O)c4ccc(Oc5ccccc5)cc4Cl)cc3)n2)[nH]n1` ?
Result: ≤ 10 nM

Query: What would you report for `Cc1cc(Nc2cc(N3CC(N4CCCC4)C3)nc(Sc3ccc4ncccc4c3)n2)n[nH]1` ?
Result: ≤ 10 nM

Query: What would you report for `Cc1cc(Nc2cc(N3CCC3)nc(Sc3ccc(NC(=O)c4cc(C)nc(Cl)c4)cc3)n2)[nH]n1` ?
Result: 10 to 50 nM

Query: What would you report for `Cc1cc(Nc2cc(N3CCC3)nc(Sc3ccc(NC(=O)c4cnccc4C(F)(F)F)cc3)n2)[nH]n1` ?
Result: ≤ 10 nM

Query: What would you report for `Cc1cc(Nc2cc(N3CC(N4CCOCC4)C3)nc(Sc3ccc4nc(CC(F)(F)F)n(C)c4c3)n2)[nH]n1` ?
Result: ≤ 10 nM

----------
- TESTED SYSTEM: Aurora-2 (Aurora A) (Homo sapiens, UniProt O14965)
- Sequence (O14965 whole entry): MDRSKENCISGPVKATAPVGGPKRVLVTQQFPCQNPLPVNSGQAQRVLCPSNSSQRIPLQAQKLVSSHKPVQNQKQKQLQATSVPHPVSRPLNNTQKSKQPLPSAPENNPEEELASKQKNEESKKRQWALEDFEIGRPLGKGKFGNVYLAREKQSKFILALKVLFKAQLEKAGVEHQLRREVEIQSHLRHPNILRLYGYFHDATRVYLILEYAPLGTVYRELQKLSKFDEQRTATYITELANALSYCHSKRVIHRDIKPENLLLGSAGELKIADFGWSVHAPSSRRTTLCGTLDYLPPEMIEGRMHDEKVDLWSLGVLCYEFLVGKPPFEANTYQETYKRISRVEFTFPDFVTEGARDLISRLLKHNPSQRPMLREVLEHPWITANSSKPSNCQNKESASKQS
- PROTOCOL: Aurora-2 (Aurora A) inhibition assay, coupled enzyme
- Type: biochemical
- EXPERIMENTAL SETUP: read-out: Aurora A kinase Ki value
Reported Ki by item:

[[record]]
structure_as_smiles = "Cc1cc(Nc2cc(N3CC(O)(C4CC4)C3)nc(Sc3ccc4nc(C)ccc4c3)n2)[nH]n1"
test_result = "≤ 1 nM"


Query: Request - read-out Ki | tested on Aurora-2 (Aurora A) (Homo sapiens, UniProt O14965) | compound `Cc1cc(Nc2cc(N3CCC3)nc(Sc3ccc(NC(=O)C(F)(F)F)cc3)n2)[nH]n1`
Result: 1 to 5 nM

Query: What would you report for `Cc1cc(Nc2cc(N3CC(F)(C4CC4)C3)nc(Sc3ccc4nc(CC(F)(F)F)n(C)c4c3)n2)[nH]n1` ?
Result: ≤ 1 nM

Query: What would you report for `Cc1cc(Nc2cc(N3CCC3)nc(Sc3ccc(NC(=O)c4ncccc4C)cc3)n2)[nH]n1` ?
Result: 5 to 200 nM

----------
- TESTED SYSTEM: Aurora-1 (Aurora B) (Homo sapiens)
- PROTOCOL: Aurora-1 (Aurora B) inhibition assay (radiometric)
- Format: biochemical
- EXPERIMENTAL SETUP: read-out: Aurora B kinase Ki value
pKi: −log10 of the molar value.
Reported pKi by item:

[[record]]
structure_as_smiles = "Cc1cc(Nc2cc(N3CCC3)nc(Sc3ccc(C(=O)N4CCCC4)cc3)n2)n[nH]1"
readout_name = "pKi"
test_result = "5.70 to 7.30"

[[record]]
structure_as_smiles = "CC(C)(C)c1cc(Nc2cc(N3CCC3)nc(Sc3ccc(NC(=O)c4ccccc4Cl)cc3)n2)n[nH]1"
readout_name = "pKi"
test_result = "5.70 to 7.30"

[[record]]
structure_as_smiles = "CCOP(=O)(O)OC1(C)CN(c2cc(Nc3cc(C)n[nH]3)nc(Sc3ccc(NC(=O)c4ccccc4C(F)(F)F)cc3)n2)C1"
readout_name = "pKi"
test_result = "≥ 8.00"


Query: pKi lookup needed for `Cc1cc(Nc2cc(N3CC(F)(C4CC4)C3)nc(Sc3ccc4nc(C(F)(F)F)cn4c3)n2)[nH]n1` , thanks.
Result: 7.30 to 8.00

Query: What would you report for `Cc1cc(Nc2cc(N3CCC3)nc(Sc3ccc(NC(=O)c4ccc(-c5ccccc5)cc4Cl)cc3)n2)[nH]n1` ?
Result: ≥ 8.00

Query: What would you report for `CCC(=O)Nc1ccc(Sc2nc(Nc3cc(C)n[nH]3)cc(N3CC(O)(c4ccccc4)C3)n2)cc1` ?
Result: ≥ 8.00

Query: What would you report for `CCC(=O)Nc1ccc(Sc2nc(Nc3cc(C)n[nH]3)cc(N3CC(O)(c4ccccc4C)C3)n2)cc1` ?
Result: 5.70 to 7.30

Query: What would you report for `Cc1cc(Nc2cc(N3CC(F)(C4CC4)C3)nc(Sc3ccc(N)cc3)n2)[nH]n1` ?
Result: 5.70 to 7.30

Query: What would you report for `Cc1cc(Nc2cc(N3CC(N4CC[C@H](F)C4)C3)nc(Sc3ccc(NC(=O)CC(F)(F)F)cc3)n2)[nH]n1` ?
Result: ≥ 8.00

Query: What would you report for `Cc1cnc(Nc2cc(N3CC(F)(C4CC4)C3)nc(Oc3ccc(NC(=O)CC(F)(F)F)cc3)n2)s1` ?
Result: 7.30 to 8.00

Query: What would you report for `Cc1cc(Nc2cc(N3CCC3)nc(Sc3ccc(C(=O)NC4CCCC4)cc3)n2)n[nH]1` ?
Result: 5.70 to 7.30

Query: What would you report for `Cc1cc(Nc2cc(N3CCC3)nc(Sc3ccc(C(=O)Nc4ccc(Cl)cc4)cc3)n2)n[nH]1` ?
Result: 5.70 to 7.30

Query: What would you report for `Cc1cc(Nc2cc(N3CCC3)nc(Sc3ccc(NC(=O)c4ccc(F)cc4F)cc3)n2)n[nH]1` ?
Result: 7.30 to 8.00

Query: What would you report for `Cc1cc(Nc2cc(N3CCC3)nc(Sc3ccc(NC(=O)c4ncccc4C)cc3)n2)[nH]n1` ?
Result: 5.70 to 7.30

Query: What would you report for `Cc1cc(Nc2cc(N3CC(N4CC[C@H](F)C4)C3)nc(Sc3ccc4ncccc4c3)n2)n[nH]1` ?
Result: ≥ 8.00

----------
- TESTED SYSTEM: Aurora-2 (Aurora A) (Homo sapiens)
- PROTOCOL: Aurora-2 (Aurora A) inhibition assay, coupled enzyme
- Type: biochemical
- EXPERIMENTAL SETUP: read-out: Aurora A kinase Ki value
pKi: −log10 of the molar value.
READOUT NAME: pKi

The cases that follow already have their pKi on record.
[[record]]
compound = "Cc1cc(Nc2cc(N3CCC3)nc(Sc3ccc(NC(=O)c4ocnc4C)cc3)n2)n[nH]1 [Compound 167]"
test_result = "6.70 to 8.30"

[[record]]
compound = "CCC(=O)Nc1ccc(Sc2nc(Nc3cc(C)n[nH]3)cc(N3CC(OC)(C(C)(C)C)C3)n2)cc1 [Compound 90]"
test_result = "≥ 9.00"

[[record]]
compound = "CCCNC(=O)Nc1ccc(Sc2nc(Nc3cc(C)[nH]n3)cc(N3CCC3)n2)cc1 [Compound 73]"
test_result = "6.70 to 8.30"

[[record]]
compound = "Cc1cc(Nc2cc(N3CC(C)(C#N)C3)nc(Sc3ccc(NC(=O)CC(F)(F)F)cc3)n2)[nH]n1 [Compound 169]"
test_result = "≥ 9.00"

[[record]]
compound = "CCC(=O)Nc1ccc(Sc2nc(C#CC(C)(C)N3CCC3)cc(Nc3cc(C)n[nH]3)n2)cc1 [Compound 77]"
test_result = "8.30 to 9.00"


Query: Request - read-out pKi | tested on Aurora-2 (Aurora A) (Homo sapiens) | compound CCC(=O)Nc1ccc(Sc2nc(Nc3cc(C)n[nH]3)cc(N3CC(O)(c4ccccc4)C3)n2)cc1 [Compound 86]
Result: ≥ 9.00

Query: What would you report for CCOc1ccc(Sc2nc(Nc3cc(C)n[nH]3)cc(N3CC(C(=O)N4CCCC4)C3)n2)cc1 [Compound 141] ?
Result: 8.30 to 9.00

----------
Reported Ki by item:
- TESTED SYSTEM: JAK3 (Homo sapiens)
- Sequence (P52333 whole entry, species assumed): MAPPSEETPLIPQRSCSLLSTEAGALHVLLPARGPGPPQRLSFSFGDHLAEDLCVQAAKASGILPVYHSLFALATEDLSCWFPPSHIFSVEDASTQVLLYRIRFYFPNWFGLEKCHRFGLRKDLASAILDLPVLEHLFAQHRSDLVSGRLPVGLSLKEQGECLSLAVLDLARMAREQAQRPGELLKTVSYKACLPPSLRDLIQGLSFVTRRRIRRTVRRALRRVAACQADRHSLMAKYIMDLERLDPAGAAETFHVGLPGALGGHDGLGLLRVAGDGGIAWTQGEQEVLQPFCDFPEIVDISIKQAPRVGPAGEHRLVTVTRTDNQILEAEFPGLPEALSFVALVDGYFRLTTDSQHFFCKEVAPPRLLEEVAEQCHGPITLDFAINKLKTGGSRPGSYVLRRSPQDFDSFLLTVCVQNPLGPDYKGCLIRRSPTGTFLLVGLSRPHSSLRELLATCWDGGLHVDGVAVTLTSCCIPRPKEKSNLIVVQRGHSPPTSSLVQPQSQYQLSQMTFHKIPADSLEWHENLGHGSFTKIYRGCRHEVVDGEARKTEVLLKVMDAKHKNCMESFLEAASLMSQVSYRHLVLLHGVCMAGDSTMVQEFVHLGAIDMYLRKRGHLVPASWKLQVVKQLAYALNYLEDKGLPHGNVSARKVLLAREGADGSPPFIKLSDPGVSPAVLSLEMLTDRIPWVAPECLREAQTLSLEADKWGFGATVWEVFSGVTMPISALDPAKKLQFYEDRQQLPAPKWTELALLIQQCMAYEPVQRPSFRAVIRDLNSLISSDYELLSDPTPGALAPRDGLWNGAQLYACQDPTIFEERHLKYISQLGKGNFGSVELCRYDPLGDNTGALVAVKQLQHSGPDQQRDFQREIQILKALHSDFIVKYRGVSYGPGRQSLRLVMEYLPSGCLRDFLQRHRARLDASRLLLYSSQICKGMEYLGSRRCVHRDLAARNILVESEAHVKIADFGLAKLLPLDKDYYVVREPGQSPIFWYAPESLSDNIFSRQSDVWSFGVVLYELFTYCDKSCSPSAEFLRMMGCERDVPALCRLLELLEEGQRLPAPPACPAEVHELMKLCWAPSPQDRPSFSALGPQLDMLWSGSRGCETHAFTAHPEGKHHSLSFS
- PROTOCOL: biochemical

[[record]]
compound = "Cc1cc(Nc2cc(N3CCC3)nc(Sc3ccc(NC(=O)C(C)CC(F)(F)F)cc3)n2)[nH]n1 (stereo not drawn)"
tested_system = "JAK3 (Homo sapiens)"
test_result = "500 to 2000 nM"


Query: Ki lookup needed for `CCc1cccc(C(=O)Nc2ccc(Sc3nc(Nc4cc(C)[nH]n4)cc(N4CCC4)n3)cc2)c1Cl` , thanks.
Result: ≤ 10 nM
